Target: T1, purified HLA-B*3501 (human)
T1 construct: Purified MHC class I molecule incubated with human b2m
Experiment: competition radioimmunoassay on purified HLA, radiolabeled standard peptide
Measured Metric: IC50 (nM)
Quick reminder: number only, in nM, skip the unit.

Prompt: Look up IC50 for this binder: LPSDFKTIL (Synthetic 9mer peptide of human telomerase reverse transcriptase) [hTRT peptide p1123 (LPSDFKTIL)]
Response: 5
